Origin of values: PubChem BioAssay (NCI)

# Tested on: UACC-257 melanoma
# Protocol text: NCI-60 one-dose screen, 48 h (100 = growth as untreated, 0 = no growth, -100 = all killed)
# Applied conditions: 10 µM unless noted
The panel holds about 83,000 compounds, 20% with a hit somewhere; the sample as a whole holds those more often.
Returns the class for an entry based on its growth. Class ranges: low class = under 50%, middle class = from 50% up to 90%, high class = 90% and over

Examples from the recorded data:
CC(=O)NCCCS(=O)(=O)O    high class
COc1cccc(CCC(=O)c2cc3c(N)c(C(=O)Nc4ccccc4)sc3nc2C)c1    middle class
CCCCCCCCN1C(=O)/C(=c2\sc3n(c2=O)C2C(NN=3)N(CC)C(=O)N2CC)c2ccccc21 (centres undefined)    high class
CC(=O)OCC(=O)C1(O)C(C)CC2C3C=C(C)C4=Cc5c(cnn5-c5ccccc5)CC4(C)C3C(O)CC21C (centres undefined)    middle class
O=C(Nc1cccc(Cl)c1)c1cc(Cl)ccc1O    low class

[in] Please classify: `CN(C)C(=O)c1cc2cnc(Nc3ccc(-c4csc5c(=O)cc(N6CCOCC6)oc45)cc3)nc2n1C1CCCC1`
[out] low class

[in] Please classify: `Cc1ccc(O)c(C(=O)O)c1`
[out] high class

[in] Please classify: `CCNC(=O)c1[nH]cc(-c2ccc(OC)cc2)c1-c1cc(OC)cc(OC)c1`
[out] high class

[in] Please classify: `O=C(CSc1nc2sc3c(c2c(=O)n1Cc1ccccc1)CCCC3)N1CCN(c2ccccc2)CC1`
[out] middle class

[in] Please classify: `C=CCn1c(SCC(=O)Nc2ccc(C(=O)/C=C/c3cc(OC)c(OC)c(OC)c3)cc2)nnc1-c1cc(OC)c(OC)c(OC)c1`
[out] middle class
